system: HepG2 cells; test: HepG2 cytotoxicity counter-screen; details: cytotoxic activity against HepG2 cells
Answer FALSE if Tox50 is under 7 µM, and TRUE if it is 7 µM or more.

>>> classname("O=C1SC(=Cc2ccc(O)c(O)c2)C(=O)N1c1ccccc1 [TCMDC-123491]")
"TRUE"
>>> classname("COc1cccc(OC)c1CN1CCC(N(C)CCCCCCCCCN2CCC(OC(=O)Nc3ccccc3-c3ccccc3)CC2)CC1 [TCMDC-134690]")
"FALSE"
>>> classname("C[C@H](Cc1ccc(OCCCCCOc2ccc(C[C@@H](C)NC[C@H](O)c3cccc(Cl)c3)cc2)cc1)NC[C@H](O)c1cccc(Cl)c1.Cl [TCMDC-131563]")
"FALSE"
>>> classname("FC(F)(F)c1ccc2[nH]c(-c3ccc(-c4ccc(CNCCN5CCNCC5)cc4)cc3)nc2c1.O=C(O)C(F)(F)F [TCMDC-132865]")
"TRUE"
>>> classname("COc1ccc2nc(-c3cc(-c4ccc(NC(=O)C(C)C)cc4)cnc3N)[nH]c2c1 [TCMDC-135322]")
"TRUE"
>>> classname("CN(CCCCN)Cc1ccc(-c2ccc(Cl)cc2)cc1 [TCMDC-140123]")
"FALSE"

---

Test system: P. falciparum female gametocytes
Assay: P. falciparum Dual Gamete Formation Assay (PfDGFA), female readout (Pfs25-positive female gametes)
Assay type: cell-based, Plasmodium falciparum NF54
Description: […] The Pf DGFA was performed as described in Delves et al. 2016 [17]. […] Exflagellation was recorded by capturing 10 frames over 1 s under brightfield illumination using a x4 objective with a 1.5x zoom (effectively x6) attached to an automated Nikon Ti fluorescence microscope. […] The plates were then returned to the microscope and female gametes imaged at x6 using fluorescence microscopy. […]
Cytotox ratio Pf Female overview
readoutLabel: Cytotox ratio Pf Female

>>> measurement("Oc1cccc(CNCCCN(Cc2ccccc2)c2ccccc2)c1 [TC30]")
1.8
>>> measurement("CN1CCC(NCc2ccc(-c3cnc(NCc4ccccc4)nc3)cc2)CC1.O=C(O)C(F)(F)F [TC47]")
1.7
>>> measurement("CCN(CC)CCN(Cc1ccc(-c2ccc(C(F)(F)F)cc2)cc1)C(=O)Cn1cc(Cc2cnn(C)c2)c(=O)nc1/C=C/c1ccc(F)cc1.O=C(O)C(O)C(O)C(=O)O [TC64]")
2.1
>>> measurement("CCc1cc2c(Sc3nnc(N)s3)ncnc2s1 [TC12]")
63.0

---

test system: P. falciparum male gametocytes; test: P. falciparum Dual Gamete Formation Assay (PfDGFA), male readout (exflagellation); format: cell-based, Plasmodium falciparum NF54; settings: 2µM, 24h preincubation with gametocytes prior to induction of gametogenesis; average of replicates
Average inhibition male (%) overview
readoutLabel: Average inhibition male (%)

>>> measurement("Br.CC(C)(Cc1ccc(Cl)cc1)NCCCCCCNCCc1ccc(O)c(O)c1")
21.3
>>> measurement("NC(CC1CC(=O)N1CC(=O)O)C(=O)O (stereo not drawn)")
-4.7
>>> measurement("CCc1c(CCNCCCCCCNCc2ccc3c(c2CC)OCO3)ccc(OC)c1OC.Cl")
39.4
>>> measurement("CCCCCOc1ccc(N2C(N)=NC(N)=NC2(C)C)cc1.Cl")
-17.3
>>> measurement("CCOc1cc2ccccc2cc1CNCCCCCCNCc1cc2ccccc2cc1OCC.CS(=O)(=O)O")
-10.2
>>> measurement("COc1cc(NCC(O)CNc2cc(OC)c3ccccc3n2)nc2ccccc12")
53.4
>>> measurement("Cc1c(Cl)cccc1S(=O)(=O)Nc1ccc(CCN2CCC(N)CC2)cc1.Cl")
39.0
>>> measurement("Nc1cc2c(C3CCN(CC4CCN(C(=O)/C=C/c5ccc(Cl)c(Cl)c5)CC4)CC3)c[nH]c2cn1")
52.8
>>> measurement("COc1ccc2nc(Nc3nc4cnccc4[nH]3)sc2c1")
-15.4
